Each recorded value in this set is attributed to patent US11684591B2.

# TEST DESCRIPTION: Distribution in brain tissues after intravenous administration in rats (LC-MS/MS)
# Assay type: in vivo, SD rats
# RUN PARAMETERS: SD, rat, brain, iv, 45 mg/kg i.v., 4 h after administration, average, read-out: Drug concentration in brain tissues
MEASURED ATTRIBUTE: concentration at 4 h (ng/g)

CHEMICAL SMILES: CCCc1cc(-c2cc(CCC)c(O)c(C(C)C)c2)cc(C(C)C)c1O
MEASURED ATTRIBUTE: concentration at 4 h
OBSERVED MEASUREMENT: 7750

###

# MEASURED ON: GABAA, Chloride Channel, TBPS
# TEST DESCRIPTION: [35S]TBPS radioligand receptor competitive binding test
# RUN PARAMETERS: [35S]TBPS competitive binding, rats, test concentration 30, 10, 3, 1, 0.3 uM
MEASURED ATTRIBUTE: IC50 (µM)

COMPOUND: CCCc1cc(-c2cc(CCC)c(O)c(C(C)C)c2)cc(C(C)C)c1O [Compound 1]
MEASURED ATTRIBUTE: IC50
OBSERVED MEASUREMENT: 2.93

###

# TEST DESCRIPTION: Distribution in brain tissues after intravenous administration in rats (LC-MS/MS)
# Type: in vivo, SD rats
# RUN PARAMETERS: SD, rat, brain, iv, 45 mg/kg i.v., 2 h after administration, average, read-out: Drug concentration in brain tissues

COMPOUND: CCCc1cc(-c2cc(CCC)c(O)c(C(C)C)c2)cc(C(C)C)c1O [Compound 1]
concentration at 2 h (ng/g): 22700

###

# TEST DESCRIPTION: Distribution in brain tissues after intravenous administration in rats (LC-MS/MS)
# Format: in vivo, SD rats
# RUN PARAMETERS: SD, rat, brain, iv, 45 mg/kg i.v., 30 min after administration, average, read-out: Drug concentration in brain tissues
MEASURED ATTRIBUTE: concentration at 30 min

CHEMICAL SMILES: CCCc1cc(-c2cc(CCC)c(O)c(C(C)C)c2)cc(C(C)C)c1O
OBSERVED MEASUREMENT: 39800 ng/g
